Biological target: uterine OT receptors (Rattus norvegicus, UniProt P70536)
Construct: from tissue; host or cells: uterus of diethylstilbestrol dipropionate (DES)-treated rats, crude membrane preparation
Sequence (P70536 whole entry): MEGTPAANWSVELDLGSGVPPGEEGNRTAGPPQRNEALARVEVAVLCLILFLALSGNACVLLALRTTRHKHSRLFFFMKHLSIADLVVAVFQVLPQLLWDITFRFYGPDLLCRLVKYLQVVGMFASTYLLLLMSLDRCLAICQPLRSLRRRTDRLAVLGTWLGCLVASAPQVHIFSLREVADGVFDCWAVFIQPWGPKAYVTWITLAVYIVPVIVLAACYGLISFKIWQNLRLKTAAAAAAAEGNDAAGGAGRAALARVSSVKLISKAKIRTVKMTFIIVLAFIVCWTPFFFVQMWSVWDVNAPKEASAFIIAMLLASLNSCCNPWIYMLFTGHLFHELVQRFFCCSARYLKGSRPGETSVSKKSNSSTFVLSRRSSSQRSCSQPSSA
Test: [3H]Oxytocin (OT) radioligand binding to uterine OT receptors, crude uterine membranes from DES-treated rats
Details: inhibition at 1,000 nM; 1 nM [3H]OT, 60 minutes, 22° C., pH 7.4; read-out: Result For [3H]OT (% inhib. at 1,000 nM)
Experimental: Competition studies were conducted at equilibrium (60 minutes; 22° C.) using 1 nM[^3 H]OT in the following assay buffer: 50 mM Tris-HCl, 5 mM MgCl2, and 0.1% BSA, pH 7.4. Nonspecific binding (10% of the total binding) was determined using 1 μM unlabeled OT and the binding reaction was terminated by filtration through glass fiber filters using a cell harvester (model 7019, Skatron, Inc., Sterling, Va.). […]
readout_name: inhibition at 1 µM (%)
Response body: numeric value in %, unit text excluded.

Check out these entries, answers already filled in.
compound_smiles=Cc1cc(OC2CCN(C(=O)OC(C)(C)C)CC2)ccc1C(=O)N1CCC(N2C(=O)OCc3ccccc32)CC1 value_measured=59
compound_smiles=COc1cc(C(=O)N2CCN(C(=O)OC(C)(C)C)CC2)ccc1C(=O)N1CCC(N2C(=O)OCc3ccccc32)CC1 value_measured=46
compound_smiles=CC(C)(C)OC(=O)N1CCC(C(=O)NCCCOc2ccc(C(=O)N3CCC(N4C(=O)OCc5ccccc54)CC3)c(O)c2)CC1 value_measured=72

Would you kindly look at the next entry?
// sample COc1cc(OC2CCN(C(=O)OC(C)(C)C)CC2)ccc1C(=O)N1CCC(N2C(=O)COc3ccccc32)CC1 , its inhibition at 1 µM was 42

---

target: uterine OT receptors (Rattus norvegicus); construct: from tissue; host or cells: uterus of diethylstilbestrol dipropionate (DES)-treated rats, crude membrane preparation; assay: [3H]Oxytocin (OT) radioligand binding to uterine OT receptors, crude uterine membranes from DES-treated rats
readout_name: IC50 (nM)
Response body: numeric value in nM, unit text excluded.

Check out these entries, answers already filled in.
compound_smiles=COc1cc(OCCCNC(=O)C2CCNCC2)c(Cl)cc1C(=O)N1CCC(N2C(=O)OCc3ccccc32)CC1 readout_name=IC50 value_measured=56
compound_smiles=CC(=O)N(C)CCCOc1ccc(C(=O)N2CCC(N3C(=O)OCc4ccccc43)CC2)cc1 readout_name=IC50 value_measured=550
compound_smiles=COc1cc(OCCCNS(C)(=O)=O)ccc1C(=O)N1CCC(N2C(=O)OCc3ccccc32)CC1 readout_name=IC50 value_measured=81

Would you kindly look at the next entry?
Reading of IC50 for COc1ccc(C(=O)N2CCC(N3C(=O)Cc4ccccc43)CC2)c(OC)c1 with uterine OT receptors (Rattus norvegicus): 6200
